Target: EHMT1 (Homo sapiens, UniProt Q9H9B1)
Sequence (Q9H9B1 1-1298): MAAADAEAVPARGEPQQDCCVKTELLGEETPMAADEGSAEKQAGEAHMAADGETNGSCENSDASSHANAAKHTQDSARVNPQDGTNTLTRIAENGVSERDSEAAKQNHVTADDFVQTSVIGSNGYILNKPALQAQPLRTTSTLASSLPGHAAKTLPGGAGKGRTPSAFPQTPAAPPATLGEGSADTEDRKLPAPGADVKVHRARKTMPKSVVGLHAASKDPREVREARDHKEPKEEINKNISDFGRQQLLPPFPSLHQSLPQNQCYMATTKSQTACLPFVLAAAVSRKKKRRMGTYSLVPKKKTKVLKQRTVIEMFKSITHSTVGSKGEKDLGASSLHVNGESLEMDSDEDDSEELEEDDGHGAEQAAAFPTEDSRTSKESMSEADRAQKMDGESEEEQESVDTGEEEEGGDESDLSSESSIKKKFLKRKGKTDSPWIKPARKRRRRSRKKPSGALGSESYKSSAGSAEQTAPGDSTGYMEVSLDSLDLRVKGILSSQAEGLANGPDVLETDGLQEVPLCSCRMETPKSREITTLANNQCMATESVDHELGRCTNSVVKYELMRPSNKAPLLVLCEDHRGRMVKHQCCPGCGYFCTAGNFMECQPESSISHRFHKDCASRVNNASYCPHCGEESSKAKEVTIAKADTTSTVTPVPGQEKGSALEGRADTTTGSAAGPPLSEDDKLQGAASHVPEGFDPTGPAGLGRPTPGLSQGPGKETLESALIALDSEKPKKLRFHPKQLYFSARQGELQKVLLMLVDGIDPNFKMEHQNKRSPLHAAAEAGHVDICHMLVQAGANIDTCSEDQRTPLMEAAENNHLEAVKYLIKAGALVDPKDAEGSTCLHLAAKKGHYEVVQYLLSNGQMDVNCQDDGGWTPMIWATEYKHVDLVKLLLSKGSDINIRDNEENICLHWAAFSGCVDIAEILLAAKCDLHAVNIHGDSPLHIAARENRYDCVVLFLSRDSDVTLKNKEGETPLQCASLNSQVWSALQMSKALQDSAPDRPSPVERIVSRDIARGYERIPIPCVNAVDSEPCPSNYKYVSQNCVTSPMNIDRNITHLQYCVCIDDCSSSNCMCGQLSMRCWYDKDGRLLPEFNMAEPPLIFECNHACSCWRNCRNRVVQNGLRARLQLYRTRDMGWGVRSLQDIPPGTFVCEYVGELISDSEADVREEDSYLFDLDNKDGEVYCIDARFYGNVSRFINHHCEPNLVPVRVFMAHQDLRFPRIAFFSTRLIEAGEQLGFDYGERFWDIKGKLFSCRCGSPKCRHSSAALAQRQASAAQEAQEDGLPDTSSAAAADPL
Assay: EHMT1 PEP (EHMT1 peptide enzyme assay)
Assay type: biochemical
Conditions: peptide substrate enzyme assay
readout-name: IC50

Observe how each entry below is paired with its result.
CNc1cc(C)nc(Nc2ccc(OC)c(-n3cccn3)c2)n1    > 10 µM
CNC1=Nc2cc(-c3cc4[nH]ccc4c(C(N)=O)n3)c(OC)cc2C12CCC2    0.1 to 1 µM
CNC1=Nc2cc(-n3cc(CN4CCC4)cn3)c(OC)cc2C12CCC2    < 0.1 µM

List IC50 for every entry below, keeping the order given.
1. CNCc1cnn(-c2cc(Nc3nc(C)cc(NC)n3)ccc2Cl)c1
2. CNc1cc(C)nc(Nc2ccc(OC)c(-n3cc4c(n3)CN(C)CC4)c2)n1

1: < 0.1 µM; 2: 0.1 to 1 µM
